Value source: ChEMBL document CHEMBL1201862

System: DU-145
Test: NCI tumour cell line growth inhibition, 48 h
Calls of active or inactive are those of the source. Cut-off read from the data, not from the text of the source: active = GI50 up to about 1.1 µM and inactive = higher. Starred links: 1 amine or outer side, 2 acyl side, 3 side chain; linkers in the order of their positions; H or OH if unused. Non-standard residues stand in square brackets, D forms with d. Residues, ends and D or L forms follow the SMILES beside them. *: point of attachment. X47 = CCC(=O)CC1CC(C)CC(C(=O)[*:2])N1[*:1]; X46 = CCCCCCCCC(C)C(=O)*; Aib = CC(C)(N)C(=O)O; X48 = CC(CN(C)CCO)N*
Outcomes: Yes (active), No (inactive)

compound	label.class
COc1ccc(/C=C/c2cc(O)cc(OC3OC(CO)C(O)C(O)C3O)c2)cc1O (stereo not drawn)	No
CCOC(=O)C1=[N+]([O-])OC2=C(O)CCCC21 (stereo not drawn)	No
COc1ccc2nc3c([N+](=O)[O-])ccc(NCCN(C)C)c3c(N)c2c1	No
CCCCCCCCC(C)C(=O)N1CCCC1C(=O)N1C(CC(=O)CC)CC(C)CC1C(=O)NC(C)C(=O)NC(C)(C)C(=O)NC(C)(C)C(=O)NC(C(=O)NC(C)C(=O)NC(C)(C)C(=O)NC(C)(C)C(=O)NC(C)CN(C)CCO)C(C)CC (stereo not drawn) (X46-P[X47]A[Aib][Aib]IA[Aib][Aib]-X48; configuration not given here)	Yes
CC(=O)N(C)c1ccc(Nc2ccnc3ccc4nn(C)nc4c23)cc1	No
CCOC(=O)c1c(-c2cccc(Cl)c2)c(C(=O)OC)c(C)c2sc(C=O)nc12	No
C=C(Cl)/C(=C\Br)CCC(Cl)C(C)C.C=C(Cl)/C(=C\Cl)CCC(Cl)C(C)C (stereo not drawn)	No
C/C(=N\n1c(Cc2ccccc2)n[nH]c1=O)c1ccccc1	No

----------
Tested on: HCC 2998
Test: NCI tumour cell line growth inhibition, 48 h
Calls of active or inactive are those of the source. Rule as the data show it: active = GI50 up to about 1.1 µM and inactive = higher.
Each entry below carries its recorded GI50.

compound	GI50
C=C[C@@](C)(/C=C/c1ccc(O)cc1)CCC=C(C)C [BAKUCHIOL]	20.6 µM (inactive)
CN(C)Cc1ccc(C(C)(C)C)cc1-c1cc(C(C)(C)C)ccc1CN(C)C	16 µM (inactive)
O=C(Cc1ccccc1)Nc1nc2ccc(Cl)cc2c2nc(-c3ccco3)nn12	> 100 µM (inactive)
COC(=O)C(=O)Nc1cc2c3c(c1)Oc1cccc4c1C3(C)c1c(cccc1O2)O4	> 59.2 µM (inactive)
CCOC(=O)/C(SC#N)=C(/N)N1CCCC1	> 100 µM (inactive)
CON(C)C(=O)C(Cc1ccccc1)NC(=O)OC(C)(C)C (stereo unspecified)	> 100 µM (inactive)
Sc1ccccc1S	> 100 µM (inactive)
Nc1nc(CCc2n[nH]c(N)n2)n[nH]1	> 100 µM (inactive)
CC(=O)OC1C(O)COC(O[C@H]2CC[C@]34C[C@]35CC[C@]3(C)C([C@@]6(C)CC[C@@H](C(C)(C)O)O6)[C@@H](O)C[C@@]3(C)C5C[C@H](OC3OCC(O)C(O)C3O)[C@H]4C2(C)C)C1OC1OCC(O)C(O)C1O (stereo partly specified)	> 100 µM (inactive)
CCCCCCCCCCCCCCCCCCNc1ccn(C2OC(COP(=O)(O)OCC3OC(n4ccc(N)nc4=O)C(O)C3O)C(O)C2O)c(=O)n1 (stereo unspecified)	38.2 µM (inactive)
C=C(C)C1CCC(C(=O)O)CC1 (stereo unspecified)	> 100 µM (inactive)
CO[C@H]1C[C@H](O[C@H]2CC[C@@]3(C)[C@H](CC[C@@H]4[C@@H]3CC[C@]3(C)[C@@H](C5=CC(=O)OC5)CC[C@]43O)C2)O[C@H](C)[C@H]1O	0.015 µM (active)
O=C1N=CN=C2C=CC(Cl)=C(I)C12 (stereo unspecified)	> 100 µM (inactive)
CC1(C)N=C(N)N=C(N)N1c1ccc(CCc2ccccc2)cc1	2.14 µM (inactive)
C[n+]1c2ccccc2c(NCC(=O)O)c2ccccc21	> 100 µM (inactive)
CC(C)c1oc(=O)cc2c1C(O)C1OC(=O)C3(C)C(O)C4OC4C2(C)C13 (stereo unspecified) [NAGILACTONE]	1.86 µM (inactive)
O=C(CC1C(=O)Nc2ccccc2[S+]1[O-])Nc1ccccc1 (stereo unspecified)	> 100 µM (inactive)
C#C[C@]1(O)CC[C@H]2[C@@H]3CCC4=C/C(=N/OCCN(C)C)CC[C@]4(C)[C@H]3CC[C@@]21C	41 µM (inactive)
NC1C(O)C(O)C(CO)OC1n1cc(F)c(=O)[nH]c1=O (stereo unspecified)	> 100 µM (inactive)
COc1cccc(-c2nc(-c3cnccn3)n(Cc3ccccc3)n2)c1	> 100 µM (inactive)
CCOC(=O)C1(C#N)C(c2ccccc2)CC(O)(c2ccc(Cl)cc2)C(C(=O)c2ccc(Cl)cc2)C1c1ccccc1 (stereo unspecified)	> 100 µM (inactive)
CCn1c(=O)c(C(=O)O)c(Cl)c2cc3c(cc21)OCO3	> 100 µM (inactive)
CCOC(=O)CCc1c(C)c2c(OC)cc(OC)cc2oc1=O	> 100 µM (inactive)
C=CC(C)CCC(C/C=C(\C)CCCC(C)C)C(=C)CCCC(C)C (stereo unspecified)	> 100 µM (inactive)
CC1=CC2(C)C=C[C@@H]1C(=O)[C@@]1(C)CC[C@@](O)(C(C)C)[C@H]1CC2	17.5 µM (inactive)
O=[N+]([O-])c1ccc(C(Cl)C(Cl)c2ccc(C(Cl)C(Cl)c3ccc([N+](=O)[O-])cc3[N+](=O)[O-])cc2)c([N+](=O)[O-])c1 (stereo unspecified)	1.96 µM (inactive)
Sc1ncnc2c1ncn2Cc1ccco1	> 100 µM (inactive)
CCCCCCc1cc2cc(-c3csc(-c4ccc(OC)cc4)n3)c(=O)oc2cc1O	15.3 µM (inactive)
O=c1c2ccccc2ncn1COCc1ccccc1	> 100 µM (inactive)
N#C/C(=C\c1cccc(O)c1)C(N)=O	> 100 µM (inactive)
CCCCCCCCCCCCCCCCCc1nc(Cl)nc(Cl)c1Cl	> 100 µM (inactive)
CC(C)OC(=O)OCSc1ccccc1/N=C/c1cccc([N+](=O)[O-])c1	> 10 µM (inactive)
Cc1nc2ccc(F)cc2c2c1CCO2	79.1 µM (inactive)
O=C(Nc1ccc(S(=O)(=O)Nc2ncccn2)cc1)c1c2ccccc2nc2ccccc12	> 100 µM (inactive)
Cc1ccccc1NC(=O)c1nc(S)nc(N)c1-c1ccccc1C	> 100 µM (inactive)
O=C1C(=C2CCCC2)CCC1CN1CCCCC1 (stereo unspecified)	16.3 µM (inactive)
COc1ccc(C(SCCO)(c2ccccc2)c2ccc(OC)cc2)cc1	5.4 µM (inactive)
COc1cc(C/C=C/c2ccccc2)c(OC)cc1O [VIOLASTYRENE]	16.7 µM (inactive)
Clc1ccc(/C=N/C23CC4CC(CC(C4)C2)C3)c(Cl)c1	> 10 µM (inactive)
NCC(=O)N[C@H]1c2ccsc2/C(=N/O)[C@H]1O	> 100 µM (inactive)
O=C(Cc1nc2ccccc2s1)C(=O)Nc1cccc(C(F)(F)F)c1	> 100 µM (inactive)

----------
Test system: Malme-3M
Test: NCI tumour cell line growth inhibition, 48 h
Calls of active or inactive are those of the source. No stated cut-off is given here; in the data, active = GI50 up to about 1.1 µM and inactive = higher.
Each entry below carries its recorded GI50.

compound	GI50
CON(C)C(=O)C(Cc1ccccc1)NC(=O)OC(C)(C)C (stereo not drawn)	> 100 µM (inactive)
Cc1ccc2c(c1)C(=O)C1(C2)Cc2ccc(C)cc2C1=O	> 100 µM (inactive)
N#Cc1c(-c2ccc([N+](=O)[O-])cc2)c(C#N)c(=O)n(NS(=O)(=O)c2ccccc2)c1O	> 100 µM (inactive)
CC(=O)N(C)c1ccc(Nc2ccnc3ccc4nn(C)nc4c23)cc1	18.9 µM (inactive)
CCOC(=O)c1sc2nc(SC)nc3c2c1NC(=O)CN3c1cccc(F)c1	30.3 µM (inactive)
COc1cc(C/C=C/c2ccccc2)c(OC)cc1O	22.6 µM (inactive)
OC[P+](CO)(CO)C12CC3CC(CC(C3)C1)C2	> 100 µM (inactive)
CC(=O)Nc1ccc(C(=O)NN2C(=O)C(Cl)C2c2cccc([N+](=O)[O-])c2)cc1 (stereo not drawn)	> 100 µM (inactive)
CCOC(=O)CCc1c(C)c2c(OC)cc(OC)cc2oc1=O	51.3 µM (inactive)
Sc1ncnc2c1ncn2Cc1ccco1	> 100 µM (inactive)
CC1OCC2OC(C)OC(C3C4=C(CC(C)(C)CC4=O)OC4=C3C(=O)CC(C)(C)C4)C2O1 (stereo not drawn)	> 100 µM (inactive)
O=c1cc(N2CCCC2)[nH]c(=O)n1-c1ccccc1	> 100 µM (inactive)
Cc1nc2ccccc2n1CCc1nc2ccccc2[nH]1	> 100 µM (inactive)
COc1cc(CN[C@H]2CCc3cc(OC)c(OC)c(OC)c3-c3ccc(SC)c(=O)cc32)cc(OC)c1	0.0575 µM (active)
COC(=O)[C@]1(C)CCC[C@@]2(C)C1CCC1=CC3(C(C)C)CCC12OO3 (stereo partly drawn)	36.2 µM (inactive)
Sc1ccccc1S	> 100 µM (inactive)
CCOC(=O)C1S/C(=N\c2ccc(Cl)cc2Cl)N=C1C (stereo not drawn)	76.7 µM (inactive)
C/C(Cl)=N\OC(=O)Nc1ccc(C)cc1	16.9 µM (inactive)
CCC1(O)CC(O)c2c(O)c3c(c(O)c2C1C(=O)OC)C(=O)c1cccc(O)c1C3=O (stereo not drawn)	1.94 µM (inactive)
C[C@]12CC[C@H](O)CC1=CC[C@@H]1[C@@H]2CC[C@]2(C)C(=O)CC[C@@H]12	> 100 µM (inactive)
N#CC[C@@H](O)COc1ccccc1	> 100 µM (inactive)
CCOP(C)(=O)C(Cc1c[nH]c2ccccc12)C(=O)O (stereo not drawn)	> 100 µM (inactive)
N#C/C(=C\c1cccc(O)c1)C(N)=O	> 100 µM (inactive)
